Please respond with reported log10 of Ki for every item in the list.
target: T1, Human EphA2 (Ecto) (Human, UniProt P29317 24-537); test: FP competition, tracer Compound 18
T1 construct: extracellular domain
T1 sequence (P29317 24-537): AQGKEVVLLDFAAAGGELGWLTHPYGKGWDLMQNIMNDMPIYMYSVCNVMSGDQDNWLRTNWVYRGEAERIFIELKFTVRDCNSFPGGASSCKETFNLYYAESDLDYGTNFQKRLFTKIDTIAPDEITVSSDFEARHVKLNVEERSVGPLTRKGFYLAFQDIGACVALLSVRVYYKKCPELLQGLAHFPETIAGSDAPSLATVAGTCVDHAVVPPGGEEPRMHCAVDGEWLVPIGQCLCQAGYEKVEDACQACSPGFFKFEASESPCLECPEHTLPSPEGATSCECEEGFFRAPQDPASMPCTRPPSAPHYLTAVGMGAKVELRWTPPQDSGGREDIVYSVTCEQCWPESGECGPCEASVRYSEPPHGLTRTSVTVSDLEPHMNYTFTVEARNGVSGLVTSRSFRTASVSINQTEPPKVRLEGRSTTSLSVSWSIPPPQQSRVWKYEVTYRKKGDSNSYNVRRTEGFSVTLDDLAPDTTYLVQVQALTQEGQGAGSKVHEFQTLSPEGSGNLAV
Starred links: 1 amine or outer side, 2 acyl side, 3 side chain; linkers in the order of their positions; H or OH if unused. Positions of bridges follow the written chain, without caps; N, C: chain ends. Non-standard residues stand in square brackets, D forms with d. Primed or numbered codes have the meaning given here. No end group written: not given here. TBMB′ = 1,3,5-tris(bromomethyl)benzene, 1,3,5-tris(methylene)benzene core, three thioethers to Cys; 1Nal = N[C@@H](Cc1cccc2ccccc12)C(=O)O; TBMB = c1c(C[*:1])cc(C[*:3])cc1C[*:2]; hArg = N=C(N)NCCCC[C@H](N)C(=O)O; Tle = CC(C)(C)[C@H](N)C(=O)O; Ac4c = NC1(C(=O)O)CCC1; Aib = CC(C)(N)C(=O)O; Sar = CNCC(=O)O
Parameter value (number): base-10 log of Ki in nM.

Summary for this binder, AHDVPCPWGPF[1Nal]CPVNRPGC (linker 6-13-20 via TBMB) [Bicycle Compound 189] : log10 of Ki is 0.11

Item: [Sar][Sar]AHD[Aib]PCPWGPFWCPVNRPGC (linker 8-15-22 via TBMB) [Bicycle Compound 216] | log10 of Ki: 0.44

Entry Ac-[Sar][Sar]AH[dD]VPCP[1Nal]GPFWCP[Tle]N[hArg]PGC (linker 8-15-22 via TBMB) [Bicycle Compound 227] — recorded log10 of Ki = -0.12

Looking up [dD]VTCPWGPFWCPVNRPGC (linker 4-11-18 via TBMB) [Bicycle Compound 185] , I found its log10 of Ki recorded as 0.34

# log10 of Ki of Ac-[Sar][Sar]A[dD]VTC[Ac4c]WGPFWCPVNRPGC (linker 7-14-21 via TBMB′) [Bicycle Compound 166] = 1.88
